Tested on: gene editing with dCas9
Assay: Screen of 322 new SSAP proteins, gene editing activity with dCas9 (Table 5)
Format: cell-based
Conditions: normalized
Excerpt: 322 new SSAP proteins were identified from sequence data, synthesized, and screened for activity with Cas9 and dCas9. Gene editing activities are shown below in Table 5, followed by amino acid sequences of the proteins.
# dCas9 with SSAP activity (normalized) annotations
Quick one: just the number, no unit, thanks!

# molecule, assay-endpoint, reported-measurement
records = [
    ("SSAP_168: SEQ ID NO: 337; Romboutsia lituseburensis (protein, listed as Romboutsia lituseburensis) SNLKNVLKNQEDKGQGITVNPTYAMKQLMIKMKNDIDLALPKNLSSERFQKVSMSAFNNNEKLQNCEPTTFIAAMMQSAQLGLEPNTPLGQVYLIPHNLNGVDKVQFQVGYKGLLQLAHRSGKLKTLYAHEVKENDEFEIDYGLEQKLIHKPLLKGNRGDVIGYYAVYHLEPSGYSFEFMTYDEVAKHGKKYSKDFEGGIWEKDFDSMAKKTVIKKLLKYAPLSIEMQKAVAFDESVKSSIDSDMLLVESIGE", "dCas9 with SSAP activity (normalized)", "−0.836"),
]

// switching to the query molecule
Quick check: dCas9 with SSAP activity (normalized) of SSAP_154: SEQ ID NO: 323; Corynebacterium urealyticum (protein, listed as Corynebacterium urealyticum) AKNLEARMQQSTNAPARADKPLSLPDQIRQMEDQFRLAMPKGAEATQLVRDALTCLRQTPQLAQCTPASVLGGLMTCAQLGLRPGVLGHAYLIPFNDRRSGNSVAQLVIGYQGLVELAHRSGQIKALIARTVYENDHFDVDYGLEDKLVHKPHMGADKGNPVAYYAVVKFTTGGHAFYVMSHPEMLQYRDKNAKSPKRGPWVDNFEAMAHKTCVRQLAKWMPKSTEFSQALATDESIRLDVTPDAINYPDHPAEGEVIDGEVEQDGGQQ ?
−0.380
